# Test system: Staphylococcus aureus
# Assay name: Antibacterial activity against methicillin-resistant Staphylococcus aureus ATCC 33591 after 16 to 18 hrs by broth microdilution method
# Assay type: functional
# Condition summary: time 16-18 hrs
Reported MIC is given for each of the following compounds.
Measurement kind: MIC

CCCC[C@H](CN(O)C=O)C(=O)N1CCC[C@H]1c1nnc(-c2ccc(Cl)s2)s1 : 0.25 µg/mL
CCCC[C@H](CN(O)C=O)C(=O)N1CCC[C@H]1c1nnc(-c2ccc([N+](=O)[O-])cc2C(F)(F)F)s1 : 0.5 µg/mL
CCCC[C@H](CN(O)C=O)C(=O)N1CCC[C@H]1c1nnc(-c2ccc(F)cn2)s1 : 0.5 µg/mL
CCCC[C@H](CN(O)C=O)C(=O)N1CCC[C@H]1c1nnc(C2CCCC2)s1 : 0.5 µg/mL
O=C(O)c1cn(C2CC2)c2cc(N3CCNCC3)c(F)cc2c1=O [CIPROFLOXACIN] : 0.25 µg/mL
CCCC[C@H](CN(O)C=O)C(=O)N1CCC[C@H]1c1nnc(-c2ccc([N+](=O)[O-])cc2F)s1 : 0.125 µg/mL
CCCC[C@H](CN(O)C=O)C(=O)N1CCC[C@H]1c1nnc(-c2ccc(C)s2)s1 : 0.25 µg/mL
CCCC[C@H](CN(O)C=O)C(=O)N1CCC[C@H]1c1nnc(-c2ccc(F)cc2[N+](=O)[O-])s1 : 1 µg/mL
CCCC[C@H](CN(O)C=O)C(=O)N1CCC[C@H]1c1nnc(-c2ccccc2F)s1 : 0.5 µg/mL

====

# Tested on: Staphylococcus aureus
# Assay name: Antibacterial activity against methicillin-susceptible Staphylococcus aureus ATCC 29213 after 16 to 18 hrs by broth microdilution method
# Type: functional
# Condition summary: time 16-18 hrs
This listing pairs molecules with measured log10 of MIC.
Measurement kind: log10 of MIC (log10 of the value in µg/mL)

CCCC[C@H](CN(O)C=O)C(=O)N1CCC[C@H]1c1nnc(-c2sccc2F)s1 : -0.30
CCCC[C@H](CN(O)C=O)C(=O)N1CCC[C@H]1c1nnc(-c2ccns2)s1 : 0.00
CCCC[C@H](CN(O)C=O)C(=O)N1CCC[C@H]1c1nnc(-c2cc(C(F)(F)F)cc(C(F)(F)F)c2)s1 : 0.60
CCCC[C@H](CN(O)C=O)C(=O)N1CCC[C@H]1c1nnc(C2CC2)s1 : 0.60
CCCC[C@H](CN(O)C=O)C(=O)N1CCC[C@H]1c1nnc(C2CCCCC2)s1 : 0.30
CCCC[C@H](CN(O)C=O)C(=O)N1CCC[C@H]1c1nnc(-c2ccc(F)cc2[N+](=O)[O-])s1 : 0.30
CCCC[C@H](CN(O)C=O)C(=O)N1CCC[C@H]1c1nnc(-c2ccc([N+](=O)[O-])cc2)s1 : -0.30
CCCC[C@H](CN(O)C=O)C(=O)N1CCC[C@H]1c1nnc(-c2ccc(C(C)(C)C)cc2)s1 : 0.30
CCCC[C@H](CN(O)C=O)C(=O)N1CCC[C@H]1c1nnc(C)s1 : 0.60
CCCC[C@H](CN(O)C=O)C(=O)N1CCC[C@H]1C(=O)Nc1ccc(F)c[n+]1[O-] : -0.60
CCCC[C@H](CN(O)C=O)C(=O)N1CCC[C@H]1c1nnc(-c2ccc(F)cc2)s1 : 0.30
CCCC[C@H](CN(O)C=O)C(=O)N1CCC[C@H]1c1nnc(-c2ccc(Cl)s2)s1 : 0.00
CCCC[C@H](CN(O)C=O)C(=O)N1CCC[C@H]1c1nnc(CCC)s1 : 0.30
CCCC[C@H](CN(O)C=O)C(=O)N1CCC[C@H]1c1nnc(-c2ccc(C)cc2)s1 : 0.00
CCCC[C@H](CN(O)C=O)C(=O)N1CCC[C@H]1c1nnc(-c2ccco2)s1 : 0.30
CCCC[C@H](CN(O)C=O)C(=O)N1CCC[C@H]1c1nnc(-c2ccncc2)s1 : -0.30
CCCC[C@H](CN(O)C=O)C(=O)N1CCC[C@H]1c1nnc(-c2ccc(C(F)(F)F)cc2)s1 : 0.60
CCCC[C@H](CN(O)C=O)C(=O)N1CCC[C@H]1c1nnc(-c2ccsc2)s1 : 0.00
CCCC[C@H](CN(O)C=O)C(=O)N1CCC[C@H]1c1nnc(-c2cccc3ccccc23)s1 : 1.20
CCCC[C@H](CN(O)C=O)C(=O)N1CCC[C@H]1c1nnc(-c2cc(C)nn2C)s1 : 0.00
CCCC[C@H](CN(O)C=O)C(=O)N1CCC[C@H]1c1nnc(-c2ccc(C#N)cc2F)s1 : -0.60
CCCC[C@H](CN(O)C=O)C(=O)N1CCC[C@H]1c1nnc(-c2ccc(-c3ccccn3)cc2)s1 : -0.30
CCCC[C@H](CN(O)C=O)C(=O)N1CCC[C@H]1c1nnc(-c2ccccc2F)s1 : 0.00
CCCC[C@H](CN(O)C=O)C(=O)N1CCC[C@H]1c1nnc(-c2ccc(C)s2)s1 : 0.30
CCCC[C@H](CN(O)C=O)C(=O)N1CCC[C@H]1c1nnc(-c2ccccc2)s1 : 0.90
CCCC[C@H](CN(O)C=O)C(=O)N1CCC[C@H]1c1nnc(-c2ccc(Br)s2)s1 : 0.30
CCCCc1ccc(-c2nnc([C@@H]3CCCN3C(=O)[C@H](CCCC)CN(O)C=O)s2)cc1 : 0.60
CCCC[C@H](CN(O)C=O)C(=O)N1CCC[C@H]1c1nnc(-c2ccc(OC)c(OC)c2)s1 : -0.30
CCCC[C@H](CN(O)C=O)C(=O)N1CCC[C@H]1c1nnc(-c2nccs2)s1 : 0.30
CCCC[C@H](CN(O)C=O)C(=O)N1CCC[C@H]1c1nnc(-c2ccc(F)cc2C(F)(F)F)s1 : 0.30
CCCC[C@H](CN(O)C=O)C(=O)N1CCC[C@H]1c1nnc(-c2ccc(C(F)(F)F)cc2F)s1 : 0.30
CCCC[C@H](CN(O)C=O)C(=O)N1CCC[C@H]1c1nnc(-c2c(F)cccc2[N+](=O)[O-])s1 : 0.30
CCCC[C@H](CN(O)C=O)C(=O)N1CCC[C@H]1c1nnc(C2CCOC2)s1 (some centres not stated) : 0.60
CCCC[C@H](CN(O)C=O)C(=O)N1CCC[C@H]1c1nnc(-c2ccc([N+](=O)[O-])cc2C(F)(F)F)s1 : 0.00
CCCC[C@H](CN(O)C=O)C(=O)N1CCC[C@H]1c1nnc(-c2ccc[nH]2)s1 : 0.00
CCCC[C@H](CN(O)C=O)C(=O)N1CCC[C@H]1c1nnc(-c2ccc([N+](=O)[O-])cc2F)s1 : -0.30
CCCC[C@H](CN(O)C=O)C(=O)N1CCC[C@H]1c1nnc(-c2ncccc2F)s1 : 0.00

====

# System: Staphylococcus aureus
# Assay name: Antibacterial activity against methicillin-resistant Staphylococcus aureus ATCC 43300 after 16 to 18 hrs by broth microdilution method
# Assay type: functional
# Condition summary: time 16-18 hrs
Could you please mark Fulfilled for values of MIC below 1 µg/mL and Not fulfilled for values at or above it?

CCCC[C@H](CN(O)C=O)C(=O)N1CCC[C@H]1c1nnc(-c2ccsc2)s1 : Fulfilled
CCCC[C@H](CN(O)C=O)C(=O)N1CCC[C@H]1c1nnc(-c2ccc(C)s2)s1 : Fulfilled
CCCC[C@H](CN(O)C=O)C(=O)N1CCC[C@H]1c1nnc(-c2cccc3ccccc23)s1 : Not fulfilled
CCCC[C@H](CN(O)C=O)C(=O)N1CCC[C@H]1c1nnc(-c2ccccc2F)s1 : Fulfilled
CCCC[C@H](CN(O)C=O)C(=O)N1CCC[C@H]1c1nnc(-c2cc(C(F)(F)F)cc(C(F)(F)F)c2)s1 : Not fulfilled
CCCC[C@H](CN(O)C=O)C(=O)N1CCC[C@H]1c1nnc(-c2ccc(Br)s2)s1 : Fulfilled
CCCC[C@H](CN(O)C=O)C(=O)N1CCC[C@H]1c1nnc(-c2ccc(F)cc2C(F)(F)F)s1 : Not fulfilled
CCCC[C@H](CN(O)C=O)C(=O)N1CCC[C@H]1c1nnc(-c2ccc(C#N)cc2F)s1 : Fulfilled
CCCC[C@H](CN(O)C=O)C(=O)N1CCC[C@H]1c1nnc(-c2ccc(OC)cc2)s1 : Fulfilled
CCCC[C@H](CN(O)C=O)C(=O)N1CCC[C@H]1c1nnc(-c2ccc(-c3ccccn3)cc2)s1 : Fulfilled
CCCC[C@H](CN(O)C=O)C(=O)N1CCC[C@H]1c1nnc(-c2cccs2)s1 : Fulfilled
CCCC[C@H](CN(O)C=O)C(=O)N1CCC[C@H]1c1nnc(-c2ccc([N+](=O)[O-])cc2)s1 : Fulfilled
CCCC[C@H](CN(O)C=O)C(=O)N1CCC[C@H]1c1nnc(C2CCCC2)s1 : Fulfilled
CCCC[C@H](CN(O)C=O)C(=O)N1CCC[C@H]1c1nnc(C)s1 : Not fulfilled
CCCC[C@H](CN(O)C=O)C(=O)N1CCC[C@H]1c1nnc(-c2sccc2C)s1 : Fulfilled
CCCC[C@H](CN(O)C=O)C(=O)N1CCC[C@H]1c1nnc(-c2cc(C)nn2C)s1 : Fulfilled
CCCC[C@H](CN(O)C=O)C(=O)N1CCC[C@H]1c1nnc(-c2ccco2)s1 : Fulfilled
CCCC[C@H](CN(O)C=O)C(=O)N1CCC[C@H]1c1nnc(-c2ccc([N+](=O)[O-])cc2C(F)(F)F)s1 : Fulfilled
CCCC[C@H](CN(O)C=O)C(=O)N1CCC[C@H]1c1nnc(-c2ncccc2F)s1 : Fulfilled
CCCC[C@H](CN(O)C=O)C(=O)N1CCC[C@H]1c1nnc(-c2ccccc2OC)s1 : Fulfilled
CCCC[C@H](CN(O)C=O)C(=O)N1CCC[C@H]1c1nnc(-c2c(F)cccc2[N+](=O)[O-])s1 : Not fulfilled
CCCC[C@H](CN(O)C=O)C(=O)N1CCC[C@H]1c1nnc(-c2ccc(F)cn2)s1 : Fulfilled
O=C(O)c1cn(C2CC2)c2cc(N3CCNCC3)c(F)cc2c1=O : Not fulfilled
CCCC[C@H](CN(O)C=O)C(=O)N1CCC[C@H]1c1nnc(-c2nccs2)s1 : Fulfilled
CN[C@H](CC(C)C)C(=O)N[C@H]1C(=O)N[C@@H](CC(N)=O)C(=O)N[C@H]2C(=O)N[C@H]3C(=O)N[C@H](C(=O)N[C@H](C(=O)O)c4cc(O)cc(O)c4-c4cc3ccc4O)[C@H](O)c3ccc(c(Cl)c3)Oc3cc2cc(c3O[C@@H]2O[C@H](CO)[C@@H](O)[C@H](O)[C@H]2O[C@H]2C[C@](C)(N)[C@H](O)[C@H](C)O2)Oc2ccc(cc2Cl)[C@H]1O : Fulfilled
